- Tested on: MRC5
- test protocol: Cytotoxicity against human MRC5 cells after 48 hrs
- Assay type: cell-based
- condition: MRC5, 48 h
Recorded IC50 values for a group of molecules are listed next.
readout type: IC50

>>> measured_result("N=C(N)NCCc1cc2c(O)c(c1)Cc1cc(CCNC(=N)N)cc(c1O)Cc1cc(CCNC(=N)N)cc(c1O)Cc1cc(CCNC(=N)N)cc(c1O)C2.O=C(O)C(F)(F)F")
"> 256 µg/mL"
>>> measured_result("Cc1csc(-c2nc(COc3c4cc(CCNC(=N)N)cc3Cc3cc(CCNC(=N)N)cc(c3O)Cc3cc(CCNC(=N)N)cc(c3OCc3csc(-c5nc(C)cs5)n3)Cc3cc(CCNC(=N)N)cc(c3O)C4)cs2)n1.O=C(O)C(F)(F)F")
"16 µg/mL"
>>> measured_result("N=C(N)c1ccc(OCCCCCCOc2ccc(C(=N)N)cc2)cc1.O=C(O)C(F)(F)F")
"16 µg/mL"
>>> measured_result("Cc1csc(-c2nc(COc3ccc(CCNC(=N)N)cc3)cs2)n1.O=C(O)C(F)(F)F")
"32 µg/mL"
>>> measured_result("N=C(N)NCCCCCCCCCCNC(=N)N.O=C(O)C(F)(F)F [SYNTHALIN A]")
"8 µg/mL"
>>> measured_result("Cc1ccc(-c2ccc(COc3ccc(CCNC(=N)N)cc3)cn2)nc1.O=C(O)C(F)(F)F")
"> 128 µg/mL"
>>> measured_result("Cc1ccc(-c2ccc(COc3c4cc(CCNC(=N)N)cc3Cc3cc(CCNC(=N)N)cc(c3O)Cc3cc(CCNC(=N)N)cc(c3OCc3ccc(-c5ccc(C)cn5)nc3)Cc3cc(CCNC(=N)N)cc(c3O)C4)cn2)nc1.O=C(O)C(F)(F)F")
"> 128 µg/mL"
>>> measured_result("Cc1cccc(-c2cccc(COc3ccc(CCNC(=N)N)cc3)n2)n1.O=C(O)C(F)(F)F")
"16 µg/mL"
>>> measured_result("N=C(N)NCCc1ccc(O)cc1.O=C(O)C(F)(F)F")
"> 256 µg/mL"
>>> measured_result("Cc1cccc(-c2cccc(COc3c4cc(CCNC(=N)N)cc3Cc3cc(CCNC(=N)N)cc(c3O)Cc3cc(CCNC(=N)N)cc(c3OCc3cccc(-c5cccc(C)n5)n3)Cc3cc(CCNC(=N)N)cc(c3O)C4)n2)n1.O=C(O)C(F)(F)F")
"16 µg/mL"

The measurements presented in this section are drawn from ChEMBL document CHEMBL1152431.
